# test_details: Caco-2 cell monolayer permeability
# Assay type: in vitro ADME
# condition_label: human, tested at 10 μM, read-out: apical-to-basolateral apparent permeability Papp
# Experimental: In Caco-2 cell monolayers, Compound 1 had low apical-to-basolateral apparent permeability Papp value of <0.2×10^−6 cm/s when tested at 10 μM.
property_label: Papp A→B at 10 μM

# Papp A→B at 10 μM of O=C(O)c1cnn(-c2nc3cc(S(=O)(=O)c4ccccc4)c(Cl)cc3[nH]2)c1 [Compound 1] = < 0.2 ×10⁻⁶ cm/s

* * *

# test_details: Plasma drug concentrations after oral and intraperitoneal dosing (LC MS/MS)
# Format: in vivo, male Balb/c mice
# condition_label: male, Balb/c, mouse, po, 100 umol/kg p.o., 6 h post dosing, read-out: blood levels
property_label: concentration at 6 h (nM)
Quick reminder: number only, in nM, skip the unit.

Summary for this molecule, O=C(O)c1cnn(-c2nc3cc(S(=O)(=O)c4ccccc4)c(Cl)cc3[nH]2)c1 [Compound 1] : concentration at 6 h is 20

* * *

# test_details: IV/p.o. pharmacokinetic study in rat
# Type: in vivo, male Sprague Dawley rats
# condition_label: male, Sprague-Dawley, plasma, po, 5 mg/kg, p.o. dosing
property_label: bioavailability

So for `O=C(O)c1cnn(-c2nc3cc(S(=O)(=O)c4ccccc4)c(Cl)cc3[nH]2)c1` , the logged bioavailability turned out to be ≤ 5%

* * *

# test_details: IV/p.o. pharmacokinetic study in monkey
# Format: in vivo, male cynomolgus monkeys
# condition_label: male, cynomolgus monkey, plasma, po, p.o. suspension in 0.5% HPMC
# Experimental: Intravenous and oral (IV/p.o.) pharmacokinetic (PK) studies in rat, dog and monkey were carried out to facilitate the projection of human PK for Compound 1. In the rat studies, Compound 1 was dosed both as a suspension (in 0.5% HPMC) and as a solution in 20% HPPCD. Experiments in the dog and monkey were dosed as a suspension in 0.5% HPMC.
property_label: bioavailability

# compound O=C(O)c1cnn(-c2nc3cc(S(=O)(=O)c4ccccc4)c(Cl)cc3[nH]2)c1 [Compound 1] ; its bioavailability = ≤ 5%

* * *

# test_details: Plasma drug concentrations after oral and intraperitoneal dosing (LC MS/MS)
# Format: in vivo, male Balb/c mice
# condition_label: male, Balb/c, mouse, ip, 100 umol/kg i.p., 6 h post dosing, read-out: blood levels
property_label: concentration at 6 h
Please append the unit to your numeric answer.

Query `O=C(O)c1cnn(-c2nc3cc(S(=O)(=O)c4ccccc4)c(Cl)cc3[nH]2)c1` yields concentration at 6 h of 5.1 µM
